Experiment: qHTS Screen of the MIPE 4.0 Collection Against Ewings Sarcoma (TC71) (AID 1259253); further: nearly all actives have a fitted effect of over 40% in size
Settings: TC71 Ewing sarcoma viability, CellTiter-Glo, 48 h; series mostly up to 45.8 µM
Inconclusive results are not listed. The source made the active and inactive calls. The call rests on the fitted dose curve; in most records, active means well fitted inhibition curve with a large enough effect; inconclusive means small, poorly fitted or top-dose-only effect; inactive means no such curve, though single readings can be large or run the other way.
Parameter call: string, one of 1 = active, -1 = inactive

Task: What call does the record list for "C[C@@H]1CCO[C@H]2Cn3cc(C(=O)NCc4ccc(F)cc4F)c(=O)c(O)c3C(=O)N12" ?
Result: 1

Task: Check "CCN1C[C@H](C)n2c(c(O)c3c(=O)n(Cc4ccc(F)c(Cl)c4)nc(C(=O)NC)c32)C1=O" too.
Result: -1

Task: Check "Cc1ccc(NC(=O)c2ccc(CN3CCN(C)CC3)cc2)cc1Nc1nc(-c2cccnc2)cs1" too.
Result: 1

Task: Check "CC(=O)NCCC(=O)N[C@@H](CCC(N)=O)C(=O)N[C@@H](CO)C(=O)N[C@@H](CCC(N)=O)C(=O)N[C@@H](CCC(N)=O)C(=O)N[C@H](C(=O)N[C@@H](Cc1ccccc1)C(=O)N[C@]1(C)CCCCCCC=CCCC[C@@](C)(C(=O)N[C@@H](CCC(N)=O)C(=O)N[C@@H](CC(N)=O)C(N)=O)NC(=O)[C@H](CC(C)C)NC(=O)[C@H](CC(C)C)NC(=O)[C@@H](CCCNC(=N)N)NC(=O)[C@H](Cc2c[nH]c3ccccc23)NC(=O)[C@H](CC(C)C)NC(=O)[C@H](CC(N)=O)NC1=O)[C@H](C)O" too.
Result: 1

Task: Check "NC[C@H]1O[C@H](O[C@@H]2[C@@H](O)[C@@H](O[C@H]3O[C@H](CO)[C@@H](O)[C@H](N)[C@@H]3O)[C@H](N)C[C@@H]2N)[C@H](O)[C@@H](O)[C@H]1O" too.
Result: -1

---

Assay: qHTS of pediatric cancer cell lines to identify multiple opportunities for drug repurposing: Primary screen for LAN-5 cells (AID 1347100); further: potency means the concentration at half of the fitted maximal effect
Details: LAN-5 neuroblastoma viability, CellTiter-Glo luminescence, 48 h; series mostly up to 46 µM
Results filed as inconclusive are left out. The source made the active and inactive calls. Calls come from the whole dose curve; as a rule, active = well fitted cell-killing curve with a large enough effect; inconclusive = small, poorly fitted or top-dose-only effect; inactive = no such curve, though single readings can be large or run the other way.
quantity: Potency

The examples below pair each entry with its known result.
CCN(CCO)CCCOc1ccc2c(Nc3cc(CC(=O)Nc4cccc(F)c4)[nH]n3)ncnc2c1 :: 0.0372 µM (active)
C=C1c2cccc(O)c2C(O)=C2C(=O)[C@@]3(O)C(O)=C(C(N)=O)C(=O)[C@@H](N(C)C)[C@@H]3[C@@H](O)[C@H]12 :: 13.2 µM (active)
CC(C)CN(C[C@H](O)[C@H](Cc1ccccc1)NC(=O)O[C@H]1CCOC1)S(=O)(=O)c1ccc(N)cc1 :: inactive
Cc1cn([C@@H]2C[C@@H](O)[C@H](CO)O2)c(=O)[nH]c1=O :: inactive
OC[C@H]1O[C@@H](Oc2ccc(O)cc2)[C@H](O)[C@@H](O)[C@H]1O :: inactive
CC(C)CN(C[C@@H](O)[C@H](Cc1ccccc1)NC(=O)O[C@H]1CO[C@H]2OCC[C@H]21)S(=O)(=O)c1ccc(N)cc1 :: 18.7 µM (active)
Cc1cc2nc3c(=O)[nH]c(=O)nc-3n(CC(O)C(O)C(O)CO)c2cc1C (configuration not stated) :: inactive
C[C@@]1(c2cc(-c3cncnc3)c(F)cc2F)CCSC(N)=N1 :: 3.72 µM (active)
CCC(=O)N1CCN(c2ccc(-n3c(=O)ccc4cnc5ccc(-c6cnc7ccccc7c6)cc5c43)cc2C(F)(F)F)CC1 :: inactive
CCC(c1ccc(O)cc1)C(CC)c1ccc(O)cc1 (configuration not stated) :: inactive

Now, please, on to the next compound.
Task: Could you tell me which Potency is on file for "CN1C(=O)C[C@H](C(=O)N[C@@H](Cc2cnc[nH]2)C(=O)N2CCC[C@@H]2C(N)=O)NC1=O" ?
Result: 20.9 µM (active)

---

Assay: qHTS Screen of the MIPE 4.0 Collection Against Ewings Sarcoma (RDES) (AID 1259252); further: nearly all actives have a fitted effect of over 35% in size; further: potency means the concentration at half of the fitted maximal effect
Settings: RD-ES Ewing sarcoma viability, CellTiter-Glo, 48 h; series mostly up to 45.8 µM
Inconclusive results are not listed. Active and inactive are the calls of the source. Calls follow the shape of the dose curve; as a rule, active = well fitted inhibition curve with a large enough effect; inconclusive = small, poorly fitted or top-dose-only effect; inactive = no such curve, though single readings can be large or run the other way.
quantity: Potency

The examples below pair each entry with its known result.
COc1cc2nccc(Oc3ccc(NC(=O)Nc4ccc(F)cc4F)c(F)c3)c2cc1OC :: 14.8 µM (active)
CC(C)CN(C[C@@H](O)[C@H](Cc1ccccc1)NC(=O)O[C@H]1CO[C@H]2OCC[C@H]21)S(=O)(=O)c1ccc(N)cc1 :: 2.09 µM (active)
N#Cc1c(N(CC(=O)O)CC(=O)O)sc(C(=O)O)c1CC(=O)O :: inactive
CC(C)(CO)[C@@H](O)C(=O)NCCC(=O)O :: 20.9 µM (active)
CNC(=O)[C@H](CC1=CN=C2C=CCC=C12)NC(=O)[C@@H](CC(=O)NO)CC(C)C :: inactive

Now, please, on to the next molecule.
Task: Could you tell me which Potency is on file for "O=C(Nc1cccc(C(F)(F)F)c1)Nc1cc(S(=O)(=O)NC2CC2)ccc1-c1ccsc1" ?
Result: 20.9 µM (active)

---

Test: qHTS Screen of the MIPE 4.0 Collection Against Ewings Sarcoma (EW8) (AID 1259255); further: nearly all actives have a fitted effect of over 35% in size;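 on viability: 100% = DMSO-treated cells and 0% = medium-only wells without cells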
Settings: EW8 Ewing sarcoma viability, CellTiter-Glo, 48 h; series mostly up to 45.8 µM
Description: There is a large unmet medical need for treatments for Ewing sarcoma, a pediatric sarcoma. […] Using the NCATS developed oncology compound library called the Mechanism of Interrogation Plate (MIPE), four Ewing sarcoma cell lines were evaluated (TC32, TC71, RDES, EW8). Compounds, in a 12-point titration series, were incubated with cells for 48 hours and the read out was cell viability (CellTiter-Glo from Promega). […]
Results filed as inconclusive are left out. Calls of active or inactive are those of the source. Calls follow the shape of the dose curve; as a rule, active = well fitted inhibition curve with a large enough effect; inconclusive = small, poorly fitted or top-dose-only effect; inactive = no such curve, though single readings can be large or run the other way.
Parameter call: string, one of active, inactive

Task: What call does the record list for "CN(C)CCOc1ccc(C(=C(CCCl)c2ccccc2)c2ccccc2)cc1" ?
Result: inactive

Task: Check "CC(C)(C)c1nc(-c2cccc(NS(=O)(=O)c3c(F)cccc3F)c2F)c(-c2ccnc(N)n2)s1" too.
Result: active

Task: Check "CN1CCc2c(n(Cc3ccc(C(=O)NO)cc3)c3ccccc23)C1" too.
Result: active

Task: Check "Cc1ccccc1-n1c(Cn2nc(-c3cccc(O)c3)c3c(N)ncnc32)nc2cccc(C)c2c1=O" too.
Result: active

Task: Check "CN[C@@H]1CN(c2ccc3c(=O)c(C(=O)O)cn(-c4nccs4)c3n2)C[C@@H]1OC" too.
Result: active

---

Assay: Quantitative High-Throughput drug screen in 47 multiple myeloma cell lines against the NCATS MIPE library collection: KMS27_JCRB cell viability assay (AID 1918970); further: nearly all actives have a fitted effect of over 30% in size; further: potency means the concentration at half of the fitted maximal effect
Settings: KMS27 myeloma cells, CellTiter-Glo ATP viability, 48 h
Results filed as inconclusive are left out. Activity calls are given as the source filed them. The call rests on the fitted dose curve; in most records, active means well fitted cell-killing curve with a large enough effect; inconclusive means small, poorly fitted or top-dose-only effect, or effect the other way; inactive means no such curve, though single readings can be large or run the other way.
quantity: Potency

The examples below pair each entry with its known result.
CCCC1OC2C[C@@H]3[C@H]4CCC5=CC(=O)C=C[C@]5(C)[C@H]4C(O)C[C@]3(C)[C@]2(C(=O)CO)O1 (stereo partly drawn) :: inactive
CC(C)c1c(C(=O)Nc2ccccc2)c(-c2ccccc2)c(-c2ccc(F)cc2)n1CC[C@H](O)C[C@@H](O)CC(=O)O :: 4.69 µM (active)
CCCCC(C)(C)[C@H](O)C=C[C@H]1[C@H](O)CC(=O)[C@H]1CC=CCCCC(=O)O :: inactive
CCNC(=O)c1noc(-c2cc(C(C)C)c(O)cc2O)c1-c1ccc(CN2CCOCC2)cc1 :: inactive
Cc1ccccc1-n1c(Cn2nc(-c3cccc(O)c3)c3c(N)ncnc32)nc2cccc(C)c2c1=O :: 0.469 µM (active)

Task: Could you tell me which Potency is on file for CC1CNc2c(cccc2S(=O)(=O)N[C@@H](CCCN=C(N)N)C(=O)N2CC[C@@H](C)C[C@@H]2C(=O)O)C1 (stereo partly drawn) ?
Result: 14.8 µM (active)

Task: Check "Cc1cc(NC(=O)Nc2ccc(N(C)C)cc2)c2cc(F)cc(F)c2n1" too.
Result: inactive

Task: Check "Cc1ccc2c(c1)c1c(n2CCc2ccc(C)nc2)CCN(C)C1" too.
Result: inactive

Task: Check "Cc1[nH]c(C=C2C(=O)Nc3ccc(S(=O)(=O)N(C)c4cccc(Cl)c4)cc32)c(C)c1C(=O)N1CCN(C)CC1" too.
Result: 5.9 µM (active)

Task: Check "Cc1cnc(CNC(=O)c2c(=O)c3ccc(N4CCCN(C)CC4)nc3n3c2sc2ccccc23)cn1" too.
Result: inactive

---

Assay: Quantitative High-Throughput drug screen in 47 multiple myeloma cell lines against the NCATS MIPE library collection: AMO1_DSMZ cell viability assay (AID 1918927; further: nearly all actives have a fitted effect of over 30% in size; further: potency means the concentration at half of the fitted maximal effect)
Details: AMO1 myeloma cells viability, CellTiter-Glo ATP luminescence, 48 h; series mostly up to 45.8 µM
Records with an inconclusive call do not appear. Activity calls are given as the source filed them. Calls follow the shape of the dose curve; as a rule, active = well fitted cell-killing curve with a large enough effect; inconclusive = small, poorly fitted or top-dose-only effect, or effect the other way; inactive = no such curve, though single readings can be large or run the other way.
quantity: Potency

O=C(C=Cc1ccc(O)cc1)c1ccc(O)cc1O :: 10.5 µM (active)
c1ccc(CNc2nc(N3CCOc4ccccc43)nc3c2CCCC3)cc1 :: 16.6 µM (active)
CON(C)C(=O)N1N=C(c2cc(F)ccc2F)S[C@]1(CCCN)c1ccccc1 :: 0.001 µM (active)
Cc1ccc(C(=O)N(CCCN)[C@@H](c2oc3cc(Cl)ccc3c(=O)c2Cc2ccccc2)C(C)C)cc1 :: 0.001 µM (active)
CCC=CC[C@H]1C(=O)CC[C@@H]1CC(=O)OC :: inactive

Task: Could you tell me which Potency is on file for "CN[C@@H]1[C@@H](O)[C@@H](O[C@@H]2[C@@H](O)[C@H](O[C@H]3O[C@H](CN)[C@@H](O)[C@H](O)[C@@H]3O)[C@@H](N)C[C@@H]2NC(=O)[C@@H](O)CN)OC[C@]1(C)O" ?
Result: inactive

Task: Check "NCc1c[nH]c(=S)n1[C@H]1CCc2c(F)cc(F)cc2C1" too.
Result: 20.9 µM (active)

Task: Check "Cc1cn([C@@H]2C[C@@H](O)[C@H](CO)O2)c(=O)[nH]c1=O" too.
Result: inactive

Task: Check "Cc1ccc2c(c1)c1c(n2CCc2ccc(C)nc2)CCN(C)C1" too.
Result: inactive
